molecular target: human orexin 2 receptor (hOx2R) (Homo sapiens); construct: expressed in transfected cells; test: Radioligand binding assay ([125I]orexin A competition), hOx2R; settings: CHO or HEK cell membranes, 1 h room temperature
Sequence (O43614 whole entry): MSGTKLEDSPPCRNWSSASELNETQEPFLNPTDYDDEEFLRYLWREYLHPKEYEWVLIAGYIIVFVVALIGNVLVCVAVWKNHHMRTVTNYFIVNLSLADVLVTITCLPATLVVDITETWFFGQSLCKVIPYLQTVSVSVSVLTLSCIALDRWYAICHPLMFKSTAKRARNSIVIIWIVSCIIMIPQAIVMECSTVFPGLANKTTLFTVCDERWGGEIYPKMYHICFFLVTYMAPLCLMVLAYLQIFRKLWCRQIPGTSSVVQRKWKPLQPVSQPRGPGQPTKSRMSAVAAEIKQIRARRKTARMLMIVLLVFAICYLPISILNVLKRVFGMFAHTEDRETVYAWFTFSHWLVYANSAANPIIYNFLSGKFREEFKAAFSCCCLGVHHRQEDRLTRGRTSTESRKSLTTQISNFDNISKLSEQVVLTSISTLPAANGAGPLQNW
So basically: is Kd under 500 nM? Then T. Not under? Then F.

Molecule | Assigned Category
CN(C(=O)c1ccc2c(c1)OCO2)[C@H](CCNC(=O)c1ccccn1)Cc1ccc(F)cc1 | F
CN(C(=O)c1ccc2c(c1)OCO2)[C@H](CCNC(=O)c1nccn1C)Cc1ccccc1 | T
CN(C(=O)c1ccc2ccccc2c1)[C@H](CCNC(=O)c1nc2ccccc2n1C)Cc1ccc(F)cc1 | F
COc1cc(Cl)cc(C(=O)N(C)[C@H](CCNC(=O)c2cccn2C)Cc2ccccc2)c1 | T
CN(C(=O)c1cccc2cc[nH]c12)[C@H](CCNC(=O)c1ccccn1)Cc1ccccc1 | F
CCCN(C(=O)c1cc(C(F)(F)F)cc(C(F)(F)F)c1)[C@H](CCNC(=O)c1ccccn1)Cc1ccccc1 | T
CN(C(=O)c1cccc2ccn(C)c12)[C@H](CCNC(=O)c1ccccn1)Cc1ccccc1 | T
CN(C(=O)c1ccccc1)[C@H](CCNC(=O)c1cccc2cccnc12)Cc1ccccc1 | F
CN(C(=O)c1cccc(Br)c1)[C@H](CCNC(=O)c1nc2ccccc2n1C)Cc1ccccc1 | T
COc1ccc(C(=O)N(C)[C@H](CCNC(=O)c2ccccn2)Cc2ccccc2)cc1OC | T
CCCOc1cccc(C(=O)N(C)[C@H](CCNC(=O)c2cccn2C)Cc2ccccc2)c1 | T
CN(C(=O)c1ccccc1)[C@H](CCNC(=O)c1ccc2c(c1)OCO2)Cc1ccccc1 | T
CN(C(=O)c1ccc2ccccc2c1)[C@H](CCNC(=O)c1ccccn1)Cc1ccccc1 | T
C[C@H](CNC(=O)c1ccccn1)[C@H](Cc1ccccc1)N(C)C(=O)c1ccccc1 | F
CN(C(=O)c1cccc(OC(F)(F)F)c1)[C@H](CCNC(=O)c1cccn1C)Cc1ccccc1 | T
COc1cc(OC)cc(C(=O)N(C)[C@H](CCNC(=O)c2ccccn2)Cc2ccccc2)c1 | T
CN(C(=O)c1ccc(C(F)(F)F)c(C(F)(F)F)c1)[C@H](CCNC(=O)c1ccccn1)Cc1ccccc1 | F
CN(C(=O)c1cccc2ccccc12)[C@H](CCNC(=O)c1ccccn1)Cc1ccc(Cl)cc1 | T
CN(C(=O)c1cc(C(F)(F)F)cc(C(F)(F)F)c1)C(CCNC(=O)c1ccccc1)Cc1ccccc1 (stereo not shown) | T
CN(C(=O)c1cccc2c1OCO2)[C@H](CCNC(=O)c1ccccn1)Cc1ccc(Cl)cc1 | F
Cc1cc(C)cc(C(=O)N(C)[C@H](CCNC(=O)c2ccccn2)Cc2ccccc2)c1 | T
CN(C(=O)c1cccc2ccccc12)[C@H](CCNC(=O)c1nc2ccccc2n1C)Cc1ccc(Cl)cc1 | T
CN(C(=O)c1cccc2ccccc12)[C@H](CCNC(=O)c1nc2ccccc2n1C)Cc1ccccc1 | T
COc1cccc(C(=O)N(C)[C@H](CCNC(=O)c2cccn2C)Cc2ccccc2)c1 | T
CN(C(=O)c1cccc(C(F)(F)F)c1)[C@H](CCNC(=O)c1ccccn1)Cc1ccccc1 | T
CN(C(=O)c1ccc2ccccc2c1)[C@H](CCNC(=O)c1ccccn1)Cc1ccc(Cl)cc1 | F
CCCN(C(=O)c1ccc2c(c1)OCO2)[C@H](CCNC(=O)c1ccccn1)Cc1ccccc1 | T
COc1cc(F)cc(C(=O)N(C)[C@H](CCNC(=O)c2cccn2C)Cc2ccccc2)c1 | T
CN(C(=O)c1cccc2c1OCC2)[C@H](CCNC(=O)c1ccccn1)Cc1ccccc1 | F
CN1CCc2cc(C(=O)N(C)[C@H](CCNC(=O)c3ccccn3)Cc3ccccc3)ccc21 | F
Cc1nc(C(=O)NCC[C@H](Cc2ccccc2)N(C)C(=O)c2ccc3c(c2)OCO3)c(-c2ccccc2F)s1 | T
